- TARGET_ENTITY: AAK1 (Homo sapiens, UniProt Q2M2I8)
- Construct: HA; expressed in transfected cells; host or cells: HEK293F
- Sequence (Q2M2I8 1-863 isoform Q2M2I8-2): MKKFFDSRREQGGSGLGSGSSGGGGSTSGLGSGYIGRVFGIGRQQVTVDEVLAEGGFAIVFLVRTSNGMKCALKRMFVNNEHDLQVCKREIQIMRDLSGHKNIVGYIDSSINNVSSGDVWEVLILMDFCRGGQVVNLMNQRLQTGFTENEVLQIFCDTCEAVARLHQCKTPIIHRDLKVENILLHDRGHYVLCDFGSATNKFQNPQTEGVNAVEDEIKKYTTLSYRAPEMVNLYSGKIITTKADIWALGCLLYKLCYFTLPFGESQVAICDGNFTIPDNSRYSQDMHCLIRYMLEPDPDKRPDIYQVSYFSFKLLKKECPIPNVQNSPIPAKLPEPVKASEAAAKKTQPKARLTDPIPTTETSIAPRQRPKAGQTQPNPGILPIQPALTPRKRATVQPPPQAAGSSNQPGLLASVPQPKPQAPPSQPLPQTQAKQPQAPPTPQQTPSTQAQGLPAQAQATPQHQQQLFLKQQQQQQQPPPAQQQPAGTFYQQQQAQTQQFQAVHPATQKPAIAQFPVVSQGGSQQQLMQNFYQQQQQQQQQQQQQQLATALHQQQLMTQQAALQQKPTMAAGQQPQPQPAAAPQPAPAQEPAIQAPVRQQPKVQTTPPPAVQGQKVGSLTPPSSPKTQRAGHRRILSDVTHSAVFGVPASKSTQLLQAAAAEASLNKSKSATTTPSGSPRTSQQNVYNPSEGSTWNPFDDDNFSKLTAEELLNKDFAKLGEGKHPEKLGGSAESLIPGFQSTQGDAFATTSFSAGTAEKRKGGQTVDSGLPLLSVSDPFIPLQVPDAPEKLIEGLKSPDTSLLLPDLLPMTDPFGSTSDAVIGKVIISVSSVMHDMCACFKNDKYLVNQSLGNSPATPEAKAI
- PROCEDURE_TEXT: HEK281 cell-based assay (phospho-mu2 Western blot in transfected HEK293F cells)
- DETAILS: 3 hours incubation, read-out: CBA IC50
pIC50: −log10 of the molar value.
In this section we review reported pIC50 values for a set of molecules.
EXPERIMENTAL_ENDPOINT: pIC50

{"MOLECULE": "CCCCNc1ccc2ncc(-c3ccc(C(=O)NCCNC)cc3)n2n1", "EXPERIMENTAL_ENDPOINT": "pIC50", "RESULT": "≥ 7.00"}
{"MOLECULE": "O=C(N1CCCCC1)N1CCN(c2ccc3ncc(-c4ccccn4)n3n2)CC1", "EXPERIMENTAL_ENDPOINT": "pIC50", "RESULT": "≥ 7.00"}
{"MOLECULE": "CN(C(=O)OC(C)(C)C)[C@H]1CCN(c2ccc3ncc(-c4ccncc4)n3n2)C1", "EXPERIMENTAL_ENDPOINT": "pIC50", "RESULT": "≥ 6.00"}
{"MOLECULE": "COc1cnccc1-c1cnc2ccc(NCC3CCCC3)nn12", "EXPERIMENTAL_ENDPOINT": "pIC50", "RESULT": "≥ 7.00"}
{"MOLECULE": "COc1cnccc1-c1cnc2ccc(NCCN(C)C(=O)OC(C)C)nn12", "EXPERIMENTAL_ENDPOINT": "pIC50", "RESULT": "≥ 7.00"}
{"MOLECULE": "CN(CCNc1ccc2ncc(-c3ccc(CN)cc3)n2n1)c1ccccc1", "EXPERIMENTAL_ENDPOINT": "pIC50", "RESULT": "≥ 7.00"}
{"MOLECULE": "CC(C)(C)C(=O)N1CCC[C@H]1CNc1ccc2ncc(-c3ccc(CN)cc3)n2n1", "EXPERIMENTAL_ENDPOINT": "pIC50", "RESULT": "≥ 7.00"}
{"MOLECULE": "CC(C)(C)OC(=O)N1CCCC1CCNc1ccc2ncc(-c3ccc(CN)cc3)n2n1 (stereo not shown)", "EXPERIMENTAL_ENDPOINT": "pIC50", "RESULT": "≥ 8.00"}
{"MOLECULE": "COc1ccccc1-c1cnc2ccc(NC[C@@H]3CCCN3C(C)=O)nn12", "EXPERIMENTAL_ENDPOINT": "pIC50", "RESULT": "≥ 7.00"}
{"MOLECULE": "COc1nc(C)ccc1-c1cnc2ccc(N3CC[C@H](N(C)C(=O)OC(C)C)C3)nn12", "EXPERIMENTAL_ENDPOINT": "pIC50", "RESULT": "≥ 8.00"}

====

- TARGET_ENTITY: AAK1 (Homo sapiens)
- Construct: HA; expressed in transfected cells; host or cells: HEK293F
- PROCEDURE_TEXT: HEK281 cell-based assay (phospho-mu2 Western blot in transfected HEK293F cells)
- DETAILS: 3 hours incubation, read-out: CBA IC50
EXPERIMENTAL_ENDPOINT: IC50

{"COMPOUND": "CCCCNc1ccc2ncc(-c3ccc(C(=O)N[C@@H]4CCCC[C@@H]4N)cc3)n2n1", "TARGET_ENTITY": "AAK1 (Homo sapiens)", "RESULT": "≤ 100 nM"}
{"COMPOUND": "COc1ccccc1-c1cnc2ccc(NC[C@@H]3CCCN3C(=O)CC(C)C)nn12", "TARGET_ENTITY": "AAK1 (Homo sapiens)", "RESULT": "≤ 10 nM"}
{"COMPOUND": "CCOC(=O)N(C)[C@H]1CCN(c2ccc3ncc(-c4ccc(C)nc4OC)n3n2)C1", "TARGET_ENTITY": "AAK1 (Homo sapiens)", "RESULT": "≤ 100 nM"}
{"COMPOUND": "COc1cnccc1-c1cnc2ccc(NCCCC(F)(F)F)nn12", "TARGET_ENTITY": "AAK1 (Homo sapiens)", "RESULT": "≤ 10 nM"}
{"COMPOUND": "CC(C)CC(=O)N1CCC[C@H]1CNc1ccc2ncc(-c3ccccc3)n2n1", "TARGET_ENTITY": "AAK1 (Homo sapiens)", "RESULT": "≤ 100 nM"}
{"COMPOUND": "CCOc1ccccc1CCNc1ccc2ncc(-c3ccc(CN)cc3)n2n1", "TARGET_ENTITY": "AAK1 (Homo sapiens)", "RESULT": "≤ 100 nM"}
{"COMPOUND": "COc1cnccc1-c1cnc2ccc(NCCCOC(C)(C)C)nn12", "TARGET_ENTITY": "AAK1 (Homo sapiens)", "RESULT": "≤ 1000 nM"}
{"COMPOUND": "NCc1ccc(-c2cnc3ccc(NCCOc4ccccc4)nn23)cc1", "TARGET_ENTITY": "AAK1 (Homo sapiens)", "RESULT": "≤ 1000 nM"}
{"COMPOUND": "CC(C)OC(=O)N(C)CCNc1ccc2ncc(-c3cscn3)n2n1", "TARGET_ENTITY": "AAK1 (Homo sapiens)", "RESULT": "≤ 100 nM"}
{"COMPOUND": "COc1ncccc1-c1cnc2ccc(N3CCN(C(=O)OC(C)C)CC3)nn12", "TARGET_ENTITY": "AAK1 (Homo sapiens)", "RESULT": "≤ 10 nM"}
{"COMPOUND": "CCCCNc1ccc2ncc(-c3ccc(CNCC4CC4)cc3)n2n1", "TARGET_ENTITY": "AAK1 (Homo sapiens)", "RESULT": "≤ 1000 nM"}
{"COMPOUND": "COc1ccccc1-c1cnc2ccc(N3CCN(C(=O)N(C)C(C)C)CC3)nn12", "TARGET_ENTITY": "AAK1 (Homo sapiens)", "RESULT": "≤ 100 nM"}
{"COMPOUND": "NCc1ccc(-c2cnc3ccc(NCC4CCCN4CC(F)(F)F)nn23)cc1 (centres unmarked)", "TARGET_ENTITY": "AAK1 (Homo sapiens)", "RESULT": "≤ 100 nM"}
{"COMPOUND": "CN(CCNc1ccc2ncc(-c3ccc(C4CCCN4)cc3)n2n1)C(=O)OC(C)(C)C (centres unmarked)", "TARGET_ENTITY": "AAK1 (Homo sapiens)", "RESULT": "≤ 10 nM"}
{"COMPOUND": "CC(C)OC(=O)N1CCN(c2ccc3ncc(-c4cccc5c4OC(F)(F)O5)n3n2)CC1", "TARGET_ENTITY": "AAK1 (Homo sapiens)", "RESULT": "≤ 1000 nM"}
{"COMPOUND": "CC(C)(C)COC(=O)N1CCC[C@H]1CNc1ccc2ncc(Br)n2n1", "TARGET_ENTITY": "AAK1 (Homo sapiens)", "RESULT": "≤ 100 nM"}
{"COMPOUND": "CC(C)OC(=O)N1CCN(c2ccc3ncc(-c4ccccc4OC(F)F)n3n2)CC1", "TARGET_ENTITY": "AAK1 (Homo sapiens)", "RESULT": "≤ 100 nM"}
{"COMPOUND": "COc1ncccc1-c1cnc2ccc(NCC3CCOC3)nn12 (centres unmarked)", "TARGET_ENTITY": "AAK1 (Homo sapiens)", "RESULT": "≤ 1000 nM"}
{"COMPOUND": "CC(C)CC(=O)N1CCC[C@H]1CNc1ccc2ncc(-c3ccc(C#N)cc3)n2n1", "TARGET_ENTITY": "AAK1 (Homo sapiens)", "RESULT": "≤ 10 nM"}
{"COMPOUND": "COc1ccccc1-c1cnc2ccc(NC[C@@H]3CCCN3C(=O)OC(C)C)nn12", "TARGET_ENTITY": "AAK1 (Homo sapiens)", "RESULT": "≤ 10 nM"}
{"COMPOUND": "CCOC(=O)N(C)[C@H]1CCN(c2ccc3ncc(-c4cc(C)cnc4OC)n3n2)C1", "TARGET_ENTITY": "AAK1 (Homo sapiens)", "RESULT": "≤ 100 nM"}
{"COMPOUND": "Cc1cc(-c2cnc3ccc(NC[C@@H]4CCCN4C(=O)CC(C)C)nn23)ccn1", "TARGET_ENTITY": "AAK1 (Homo sapiens)", "RESULT": "≤ 100 nM"}
{"COMPOUND": "CC(C)(C)NC(=O)N1CCN(c2ccc3ncc(Br)n3n2)CC1", "TARGET_ENTITY": "AAK1 (Homo sapiens)", "RESULT": "≤ 100 nM"}
{"COMPOUND": "CCCCNc1ccc2ncc(-c3ccc(C(=O)NCCNC)c(F)c3)n2n1", "TARGET_ENTITY": "AAK1 (Homo sapiens)", "RESULT": "≤ 100 nM"}
{"COMPOUND": "CC(C)OC(=O)N(CCNc1ccc2ncc(-c3ccncc3)n2n1)C(C)C", "TARGET_ENTITY": "AAK1 (Homo sapiens)", "RESULT": "≤ 100 nM"}
{"COMPOUND": "CCCCNc1ccc2ncc(-c3ccc(C4CCCN4)cc3)n2n1 (centres unmarked)", "TARGET_ENTITY": "AAK1 (Homo sapiens)", "RESULT": "≤ 1000 nM"}
